B1: library; numbered along this chain (parent)
chain: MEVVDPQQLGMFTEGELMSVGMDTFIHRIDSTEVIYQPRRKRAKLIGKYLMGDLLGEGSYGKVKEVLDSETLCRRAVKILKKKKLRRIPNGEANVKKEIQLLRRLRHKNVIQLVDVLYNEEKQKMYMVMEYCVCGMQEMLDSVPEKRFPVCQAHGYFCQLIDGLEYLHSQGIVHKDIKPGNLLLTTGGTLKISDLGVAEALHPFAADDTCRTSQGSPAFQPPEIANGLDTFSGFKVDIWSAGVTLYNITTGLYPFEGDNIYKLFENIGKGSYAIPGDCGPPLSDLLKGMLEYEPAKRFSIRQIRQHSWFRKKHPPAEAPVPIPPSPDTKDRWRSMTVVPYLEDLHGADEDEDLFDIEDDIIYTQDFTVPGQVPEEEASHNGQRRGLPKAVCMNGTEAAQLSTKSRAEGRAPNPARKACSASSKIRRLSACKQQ

variants of: B1; test: STK11 functional score (HeLa growth suppression), rescaled enrichment; synonymous median = 1, nonsense median = 0 (normalised score); conditions: with HeLa; variant type: missense
outcome measure: STK11 functional score
A bare number is all that is needed in reply.

[in] Quick one: STK11 functional score for `S428D` ?
[out] 1.21

[in] Item under review: `Y156P` . Reported STK11 functional score?
[out] 0.418

[in] Given the variant `K287F` , what is its reported STK11 functional score?
[out] 1.25

[in] # STK11 functional score lookup, item `R304G`
[out] 1.24

[in] Entry `I322L` has what STK11 functional score?
[out] 0.886

[in] Entry `L45T` : reported STK11 functional score = ?
[out] 1.27

[in] STK11 functional score for `P323I` ?
[out] 1.52

[in] Looking for the measured STK11 functional score of `T395L` , can you help?
[out] 1.23

[in] Consider the variant shown here: `K175S` What is its recorded STK11 functional score?
[out] 0.884

[in] Request the reported STK11 functional score associated with `E291C`
[out] 1.24

[in] Query (variant): `S193W` ; field requested: STK11 functional score
[out] 0.0192

The measurements presented in this section are drawn from the supplement of paper PMC12338614.
